Sourced from PubChem BioAssay (NCI)

Documented TGI across a set of molecules
Test system: SK-MEL-5 melanoma
assay_procedure: NCI tumour cell line growth inhibition, 48 h
attribute_measured: TGI

>>> recorded_value("O=C(Nc1ccccc1)c1nn(-c2cc(S(=O)(=O)O)c([N+](=O)[O-])cc2Cl)[n+](-c2cc(S(=O)(=O)[O-])c([N+](=O)[O-])cc2Cl)n1")
"> 100 µM"
>>> recorded_value("O=[N+]([O-])c1ccc(-c2nc3ccc([N+](=O)[O-])cc3[nH]2)cc1")
"44.9 µM"
>>> recorded_value("CCCCCCc1cc2cc(-c3nc4ccccc4[nH]3)c(=Nc3ccccc3C)oc2cc1O")
"4.96 µM"
>>> recorded_value("CCOC(=O)C1C(c2ccc(OC)cc2)c2c([nH]n(-c3ccccc3)c2=O)CC1(O)OCC (centres undefined)")
"> 100 µM"
>>> recorded_value("C#CCn1ncc2c(SC)ncnc21")
"> 100 µM"
>>> recorded_value("Cc1ccc(S(=O)(=O)n2c3c(c4ccccc42)CCN2C(=O)C(S(=O)(=O)c4ccccc4)=CCC32)cc1 (centres undefined)")
"0.337 µM"
>>> recorded_value("CC[O-].CC[O-].O=C([CH-]C(=O)c1cccnc1)c1ccccc1.O=C([CH-]C(=O)c1cccnc1)c1ccccc1.[Ti+4]")
"> 100 µM"
>>> recorded_value("N#Cc1c(NC(=S)Nc2ccc(Cl)cc2)sc2c1CCCC2")
"> 100 µM"
>>> recorded_value("O=C(C=P(c1ccccc1)(c1ccccc1)c1ccccc1)c1cccc(-c2cccc([N+](=O)[O-])c2)c1")
"5.93 µM"
>>> recorded_value("CC1=NNC(=O)C1C1CC(c2c[nH]c3ccccc23)=NNC1=S (centres undefined)")
"> 100 µM"
>>> recorded_value("Cc1cc2cc3cc(C)c(N(C)C)cc3[n+](C)c2cc1N(C)C")
"6.96 µM"
>>> recorded_value("COc1cc2c(cc1OCCCCCOc1cc3c(cc1OC)C(=O)N1CC(F)C[C@H]1C=N3)N=C[C@@H]1CC(F)CN1C2=O (some centres undefined)")
"0.127 µM"
>>> recorded_value("CCOC(=O)c1sc2ncn(Cc3cccc(Br)c3)c(=O)c2c1C")
"96 µM"
>>> recorded_value("Nc1cc2c(nnn2C2OC(COCc3ccccc3)C(OCc3ccccc3)C2OCc2ccccc2)c(=O)[nH]1 (centres undefined)")
"19.9 µM"
>>> recorded_value("O=C1C2C(C(=O)[N]1[Hg][c]1cccs1)C1(Cl)C(Cl)=C(Cl)C2(Cl)C1(Cl)Cl (centres undefined)")
"3.06 µM"
>>> recorded_value("CCOc1ccc(Nc2nc3c(s2)C(=O)c2ccccc2C3=O)cc1")
"4.07 µM"
>>> recorded_value("CC(=O)Oc1cc(C)c2c(c1OC(C)=O)CC1(O2)[C@@H](C)CCC2[C@@]3(C)CC[C@H](OC(C)=O)C(C)(C)C3CC[C@]21C (some centres undefined)")
"10.7 µM"
>>> recorded_value("N#CC1Cc2cc3c(cc21)OCO3 (centres undefined)")
"> 100 µM"
>>> recorded_value("COc1cc(/C=C2/SC(c3ccccc3)N(c3cccc(Cl)c3)C2=O)cc(OC)c1OC (centres undefined)")
"> 100 µM"

* * *

System: HT29 colon
assay_procedure: NCI tumour cell line growth inhibition, 48 h
Documented log10 TGI across a set of compounds
attribute_measured: log10 TGI (log10 of the value in µM)

>>> recorded_value("O=S(=O)(Cc1ccc(Cl)cc1Cl)c1ccc(Cl)cc1")
0.58
>>> recorded_value("O=C(c1ccco1)N(Cc1ccco1)C(=S)Nc1ccccc1")
1.62
>>> recorded_value("CCCCOc1ccc(NC(=O)n2nc(N)c3ccccc32)cc1")
1.41
>>> recorded_value("C=CCc1cc(-c2cc(CC=C)c(O)c(CNC)c2)cc(CNC)c1O")
1.46
>>> recorded_value("CCC[CH2][Sn]([CH2]CCC)([O]C(=O)c1cc(F)ccc1F)[O][Sn]([CH2]CCC)([CH2]CCC)[O]C(=O)c1cc(F)ccc1F")
0.34
>>> recorded_value("N/C(=C\\C(=O)n1nc(-c2ccccc2)cc1N)c1ccccc1")
1.11
